# tgt: T1, human CD71 extracellular domain (human, UniProt P02786 89-760)
# T1 construct: also called hCD71; human CD71-ECD
# test.protocol: primary ELISA; signal on hCD71 over signal on HSA
measurement.kind: hCD71:HSA (ratio)
Give bare numbers, in ratio.

CD71-binding FN3 domain of SEQ ID NO: 115 (designed binder, Screen 1 hit, tested from colonies in the primary ELISA; not shown: C-terminal poly-histidine tag added to each FN3 domain) MLPAPKNLVVSRVTEDSARLSWTAPDAAFDSFFIGYLEPQPPGEAIDLYVPGSERSYDLTGLKPGIEYNVTIQGVKGGFPSLPLQAHFTT | 999
CD71-binding FN3 domain of SEQ ID NO: 100 (designed binder, Screen 1 hit, tested from colonies in the primary ELISA; not shown: C-terminal poly-histidine tag added to each FN3 domain) MLPAPKNLVVSRVTEDSARLSWTAPDAAFDSFYIAYAEPRPDGEAILLLVPGSERSYDLTGLKPGTEYSVLIHGVKGGLLSSPLVASFTT | 897
CD71-binding FN3 domain of SEQ ID NO: 109 (designed binder, Screen 1 hit, tested from colonies in the primary ELISA; not shown: C-terminal poly-histidine tag added to each FN3 domain) MLPAPKNLVVSRVTEDSARLSWTAPDAAFDSFFIGYLEPQPPGEAIILHVPGSERSYDLTGLKPGTEYNVTIQGVKGGFPSLPLNANFTT | 1210

Fill in hCD71:HSA for each of the 3 binders listed.
1. CD71-binding FN3 domain of SEQ ID NO: 102 (designed binder, Screen 1 hit, tested from colonies in the primary ELISA; not shown: C-terminal poly-histidine tag added to each FN3 domain) MLPAPKNLVVSRVTEDSARLSWTAPDAAFDSFDIGYTEYGGYGEAIILQVPGSERSYDLTGLKPGTEYWVLIQGVKGGGSSVPLVAYFTT
2. CD71-binding FN3 domain of SEQ ID NO: 103 (designed binder, Screen 1 hit, tested from colonies in the primary ELISA; not shown: C-terminal poly-histidine tag added to each FN3 domain) MLPAPKNLVVSRVTEDSARLSWTAPDAAFDSFYIAYAEPRPDGEAIILGVPGSERSYDLTGLKPGTEYSVLIHGVKGGLLSSPLSAYSTT
3. CD71-binding FN3 domain of SEQ ID NO: 105 (designed binder, Screen 1 hit, tested from colonies in the primary ELISA; not shown: C-terminal poly-histidine tag added to each FN3 domain) MLPAPKNLVVSRVTEDSARLSWTAPDAAFDSFHIVYHEPRPSGEAIWLWVPGSERSYDLTGLKPGTEYEVGIVSVKGGDLSVPLSAIFTT

output:
68
350
503
